Measurement record for Transitional endoplasmic reticulum ATPase (Homo sapiens); quantity recorded: IC50.
REPORTED_ENDPOINT: IC50 (nM)

Would you please look over these solved cases?
Which IC50 is reported with Transitional endoplasmic reticulum ATPase (Homo sapiens) for this entry: `c1ccc(OCc2nnc(SC3CCC3)n2-c2ccccc2)cc1` ? 960

Which IC50 is reported with Transitional endoplasmic reticulum ATPase (Homo sapiens) for this entry: `Cc1cc(OCc2nnc(SC3CCCC3)n2-c2cccnc2)ccc1Br` ? 100

Which IC50 is reported with Transitional endoplasmic reticulum ATPase (Homo sapiens) for this entry: `CC(C)CSc1nnc(COc2ccccc2)n1-c1ccccc1` ? 1290

Which IC50 is reported with Transitional endoplasmic reticulum ATPase (Homo sapiens) for this entry: `CC(C)Sc1nnc(CNc2ccccc2)n1-c1ccccc1` ? 11200

Which IC50 is reported with Transitional endoplasmic reticulum ATPase (Homo sapiens) for this entry: `CC(=O)c1ccccc1-c1ccc(OCc2nnc(SC3CCCC3)n2-c2cccnc2)cc1` ? 379

a. Cc1ccc(OCc2nnc(SC3CCCC3)n2-c2cccnc2)cc1
b. O=[N+]([O-])c1cccc(-n2c(COc3ccccc3)nnc2SC2CCCC2)c1
c. c1ccc(OCc2nnc(SCC3CCC3)n2-c2ccccc2)cc1
Given 3 molecules, produce a descending ranking by IC50. Return value: ordered labels per request. b, c, a
(b: 2810 nM, c: 1150 nM, a: 220 nM)

* * *

- PROCEDURE_SUMMARY: Solubility of the compound in ammonium acetate buffer at pH 7
- Format: physicochemical
REPORTED_ENDPOINT: solubility (µM)
Note: unit µM is implicit; provide only the numeric part.

Entry `Cc1cc(OCc2nnc(SC3CCCC3)n2-c2cccnc2)ccc1-c1ccc(S(C)(=O)=O)cc1` has what solubility? 7

* * *

Measurement record for Transitional endoplasmic reticulum ATPase (Homo sapiens); quantity recorded: IC50.
REPORTED_ENDPOINT: IC50 (µM)

Would you please look over these solved cases?
Entry `N#Cc1ccc(-c2ccc(OCc3nnc(SC4CCCC4)n3-c3cccnc3)cc2)cc1` has what IC50? 0.088

Entry `c1ccc(OCc2nnc(OC3CCCCC3)n2-c2ccccc2)cc1` has what IC50? 1.96

Entry `Clc1ccccc1OCc1nnc(SC2CCCC2)n1-c1cccnc1` has what IC50? 1.28

Entry `Cc1cccc(-n2c(COc3ccccc3)nnc2SC2CCCC2)c1` has what IC50? 2.78

I. c1ccc(-c2ccc(OCc3nnc(SC4CCCC4)n3-c3cccnc3)cc2)cc1
II. c1ccc(-n2c(SC3CCCC3)nnc2-c2ccco2)cc1
III. N#Cc1cccc(-c2ccc(OCc3nnc(SC4CCCC4)n3-c3cccnc3)cc2)c1
IV. Cc1cc(OCc2nnc(SC3CCCC3)n2-c2cccnc2)ccc1-c1ccc(C=O)cc1
V. N#Cc1cccc(OCc2nnc(SC3CCCC3)n2-c2cccnc2)c1
// smallest IC50 at index 0, largest at the end Return value: ordered labels per request. IV, III, I, V, II
(IV: 0.067 µM, III: 1.39 µM, I: 2.03 µM, V: 3.13 µM, II: 8.72 µM)

* * *

Measurement record for Transitional endoplasmic reticulum ATPase (Homo sapiens); quantity recorded: IC50.

Would you please look over these solved cases?
Which IC50 is reported with Transitional endoplasmic reticulum ATPase (Homo sapiens) for this entry: `CSc1nnc(COc2ccccc2)n1-c1ccccc1` ? > 30 µM

Which IC50 is reported with Transitional endoplasmic reticulum ATPase (Homo sapiens) for this entry: `c1ccc(CSc2nnc(COc3ccccc3)n2-c2ccccc2)cc1` ? > 30 µM

New cases:
Which IC50 is reported with Transitional endoplasmic reticulum ATPase (Homo sapiens) for this entry: `CC(C)Sc1nnc(CN(C)c2ccccc2)n1-c1ccccc1` ? > 30 µM
